Origin of the recorded values: patent US20190367620A1

Measured Kd, listed per entry for reference.
Study Target: T1, human FGFR1b-IIIb extracellular domain with a HIS tag (human)
T1 construct: also called huFGFR1b-IIIb; hFGFR1b-IIIb
T1 chain: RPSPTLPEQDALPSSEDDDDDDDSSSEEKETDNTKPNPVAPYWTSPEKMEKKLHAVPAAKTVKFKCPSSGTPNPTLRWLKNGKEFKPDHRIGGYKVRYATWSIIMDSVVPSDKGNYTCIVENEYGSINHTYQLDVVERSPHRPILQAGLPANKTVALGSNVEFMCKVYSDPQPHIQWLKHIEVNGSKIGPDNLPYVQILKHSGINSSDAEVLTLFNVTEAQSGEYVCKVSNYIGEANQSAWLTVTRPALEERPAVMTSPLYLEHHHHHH
Experiment Summary: SPR (BIAcore), IgG1 format; target IIIb by paragraph 74 and paragraph 125, the table's title says IIIc
Recorded Metric: Kd

#B10 IgG1 (antibody, V domains shown, heavy constant region not tied) VH: QVQLQESGPGLVKPSGTLSLTCAVSGGSISSNNWWSWVRQPPGKGLEWIGEIYHSGSTSYNPSLKSRVTISVDKSKNQFSLKLSSVTAADTAVYYCARATDWYDPWGQGTLVTVSS VL: SYVLTQPPSVSVAPGQTARITCGGNNIGSESVHWYQQKPGQAPVLVVYDDSDRPSGIPERFSGSNSGNTATLTISRVEAGDEADYYCQVWDSTSDHRVFGGGTKLTVLG; 0.02 nM
mAb #A02 IgG1 (antibody, V domains shown, constant regions not tied) VH: QVQLQESGPGLVKPSGTLSLTCAVSGGSISSNNWWSWVRQPPGKGLEWIGEIYHSGSTSYNPSLKSRVTISVDKSKNQFSLKLSSVTAADTAVYYCARATDWFDLWGQGTLVTVSS VL: SYVLTQPPSVSVAPGQTARITCGGNNIGSESVHWYQQKPGQAPVLVVYDDSDRPSGIPERFSGSNSGNTATLTISRVEAGDEADYYCQVWDSTSDHRVFGGGTKLTVL; 0.05 nM
#A07 IgG1 (antibody, V domains shown, heavy constant region not tied) VH: QVQLQESGPGLVKPSGTLSLTCAVSGGSISSNNWWSWVRQPPGKGLEWIGEIYHSGSTSYNPSLKSRVTISVDKSKNQFSLKLSSVTAADTAVYYCARGTDWYDPWGQGTLVTVSS VL: SYVLTQPPSVSVAPGQTARITCGGNNIGSESVHWYQQKPGQAPVLVVYDDSDRPSGIPERFSGSNSGNTATLTISRVEAGDEADYYCQVWDSTSDHRVFGGGTKLTVLG; 0.06 nM
mAb #C01 IgG1 (antibody, V domains shown, constant regions not tied) VH: QVQLQESGPGLVKPSGTLSLTCAVSGGSISSNNWWSWVRQPPGKGLEWIGEIYHSGSTSYNPSLKSRVTISVDKSKNQFSLKLSSVTAADTAVYYCARATDWFDAWGQGTLVTVSS VL: SYVLTQPPSVSVAPGQTARITCGGNNIGSESVHWYQQKPGQAPVLVVYDDSDRPSGIPERFSGSNSGNTATLTISRVEAGDEADYYCQVWDSTSDHRVFGGGTKLTVL; 0.03 nM
mAb #D01 IgG1 (antibody, V domains shown, heavy constant region not tied) VH: QVQLQESGPGLVKPSGTLSLTCAVSGGSISSNNWWSWVRQPPGKGLEWIGEIYHSGSTSYNPSLKSRVTISVDKSKNQFSLKLSSVTAADTAVYYCARATDWFDHWGQGTLVTVSS VL: SYVLTQPPSVSVAPGQTARITCGGNNIGSESVHWYQQKPGQAPVLVVYDDSDRPSGIPERFSGSNSGNTATLTISRVEAGDEADYYCQVWDSTSDHRVFGGGTKLTVLG; 0.03 nM
